Each item that follows carries a reported clearance.
# Method summary: Pharmacokinetic studies (IVPK/POPK) in male Wistar rats
# Format: in vivo
# Run conditions: male, Wistar, blood; Rat, IV bolus; 0.5 mg/kg Examples 7 and 10, 2 mg/kg Example 13; read-out: CL blood

{"Molecule": "Cc1nc(Nc2ncc(N3CCN(C)[C@H](C)C3)c(Nc3cc(C)n(C)n3)n2)cc(C2CC2)c1F", "clearance, mL/min/kg": 9.8}
{"Molecule": "Cc1nc(Nc2ncc(N3CCN[C@H](C)C3)c(Nc3cnn(C)n3)n2)cc(C2CC2)c1Cl", "clearance, mL/min/kg": 22.5}

====

# Method summary: Pharmacokinetic studies (IVPK/POPK) in male Beagle dogs
# Assay type: in vivo
# Run conditions: male, Beagle, blood; Dog, IV bolus 2 mg/kg; read-out: CL blood

{"Molecule": "Cc1nc(Nc2ncc(N3CCN(C)[C@H](C)C3)c(Nc3cc(C)n(C)n3)n2)cc(C2CC2)c1F", "clearance (mL/min/kg)": 19}
